- Protocol details: Horizontal screen assay (HS), neurologic toxicity
- Type: in vivo
- Setup conditions: mouse; mice; Median Toxic Dose; evaluated using a horizontal screen assay (HS) as opposed to the Rotorod Test; read-out: Tox TD50
Property: TD50

| Compound | Property | Measured |
| --- | --- | --- |
| CC(=O)NC(C(=O)NCc1ccccc1)c1ccsc1 (racemic) | TD50 | > 100 mg/kg |
| CC(=O)NC(C(=O)NCc1ccccc1)c1ccc[nH]1 (racemic) | TD50 | < 100 mg/kg |
| CCOC(NC(C)=O)C(=O)NCc1ccccc1 (racemic) | TD50 | > 112 mg/kg |
| CC(=O)NC(C(=O)NCc1ccccc1)c1cccs1 (racemic) | TD50 | 30 to 100 mg/kg |
| COC(NC(C)=O)C(=O)NCc1ccccc1 (racemic) | TD50 | < 300 mg/kg |
| CC(=O)NC(C(=O)NCc1ccccc1)c1ccco1 (racemic) | TD50 | 40 mg/kg |
